- procedure_details: NCI Yeast Anticancer Drug Screen. Data for the bub3 strain (AID 167)
- protocol_conditions: S. cerevisiae bub3 mutant strain, at 50.0 µM (retest, dose inferred, filed as 5.0), hits give high values
- Protocol: Growth inhibition of yeast strains with defined genetic alterations is measured as a screen for potential anti-cancer activity. Selected strains with alterations in DNA damage repair or cell cycle control were exposed to compounds and growth inhibition was measured relative to vehicle treated controls. The strain used in this assay is bub3
The panel holds about 79,000 compounds, 15% with a hit somewhere; the sample as a whole holds those more often.
Measured growth inhibition values are reported for all entries that follow.
endpoint: growth inhibition (%)

O=[N+]([O-])c1cc(C(F)(F)F)cc([N+](=O)[O-])c1CCl ... 100
O=C1c2ccccc2C(=O)N1C(=NCc1ccccc1)c1ccccc1 ... 66
C=C1C[C@H](O)[C@H]2C(C[Se]c3ccccc3)C(=O)O[C@@H]2[C@H]2[C@H](C)C(O)C[C@@H]12 (stereo partly drawn) ... 21
O=C(O)COc1ccccc1C(=O)O ... -5
COc1cc2c(c(O)c1C)C(=O)C(Cl)=CC2=O ... 99
O=[N+]([O-])c1cccc2c[n+](Cc3ccccc3)ccc12 ... -5
C=CCCCCCCCCC(=O)ON(Cc1ccc(O)c(OC)c1)C(=O)C(F)(F)F ... 40
CCCCCN(CCC)CCCCCCCCCN1CCCc2cc(OC)ccc21 ... -3
Cc1cc(C)c(S(=O)(=O)c2c(C)cc(C)cc2C)c(C)c1 ... -6
CN(C)c1ccc(C(c2ccc(N(C)C)cc2)c2ccc3c(c2)OCO3)cc1 ... 81
Nc1cc(F)c(F)cc1Sc1cc(F)c(F)cc1N ... 98
O=C1CCC(Cc2ccccc2Br)C(=O)N1 (stereo not drawn) ... 6
COc1cc(N=Nc2ccccc2)cc(/C=N/NC(N)=S)c1O ... 61
O=C(COC(=O)c1ccc(O)cc1)c1ccc(-c2ccccc2)cc1 ... -20
Cc1cc(N=Nc2ccncc2C)ccc1N ... 98
CCN(CC)CCOc1ccc(C(=C2CCCCC2)c2ccc(OCCN(CC)CC)cc2)cc1 ... 31
CCCCCCCCC[n+]1cccc(C(=O)c2ccccc2)c1 ... 70
Nc1ccc(S(=O)(=O)Nc2ccccc2)cc1 ... -1
O=C(O)CSc1nnc2c3ccccc3c3ccccc3c2n1 ... 53
COC1OC(COC(=O)c2ccccc2)CC1F (stereo not drawn) ... 26
S=C(Nc1ccccc1)[S][Sb]([S]C(=S)Nc1ccccc1)[c]1ccccc1 ... 25
CCCc1cc2c(cc1O)CC[C@@H]1[C@@H]2CC[C@]2(C)[C@@H](O)CC[C@@H]12 ... 97
C=C(CC)C[C@@H]1C[C@]2(C(=O)OC)c3[nH]c4ccccc4c3CCN2C1=O ... 18

* * *

- procedure_details: NCI Yeast Anticancer Drug Screen. Data for the cln2 rad14 strain (AID 165);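 further: 0% = growth equal to vehicle treated cultures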
- protocol_conditions: S. cerevisiae cln2 rad14 strain, at 5.0 µM (retest, dose inferred, filed as 0.5), hits give high values
- Description: Growth inhibition of yeast strains with defined genetic alterations is measured as a screen for potential anti-cancer activity. Selected strains with alterations in DNA damage repair or cell cycle control were exposed to compounds and growth inhibition was measured relative to vehicle treated controls. The strain used in this assay is cln2 rad14
This is part of a sample that, as a whole, favours compounds with a hit. Of some 79,000 tested, about 15% had one in any assay.
Reported growth inhibition values for the following compounds.
endpoint: growth inhibition (%)

CC1(C)CCCC12C=NCC2 (stereo unspecified) ... 1
CCCCC#CC(=O)OCCC ... -1
O=C(O)/C=C/C(=O)c1ccc(O)cc1 ... 7
O=C1c2ccccc2CC(Br)c2ccccc21 (stereo unspecified) ... -77
CCCCCCc1cc(C(=O)N/N=C\c2cccc([N+](=O)[O-])c2)c2ccccc2n1 ... -5
O=C1C(Cl)=CC(=NCl)C=C1Cl ... 47
Clc1ccc(CN2COc3c(ccc4cccnc34)C2)c(Cl)c1 ... -9
CC(C)C(O)C(C)C ... 4
Oc1ccc(C2SC(c3ccc(O)cc3)SC(c3ccc(O)cc3)S2)cc1 (stereo unspecified) ... 23
O=C(O)C(=O)Cc1ccc(O)cc1 ... -5
ON=C1Cc2ccccc2-c2ccccc2C1 ... 1
COc1ccc(N=Nc2ccc3oc(=O)c(C(=O)Nc4ccc(Cl)cc4)cc3c2)cc1 ... 16
COC(=O)CC1C(=O)OCc2c1cc1n(c2=O)Cc2c-1nc1ccccc1c2OC (stereo unspecified) ... -12
O=C(Nc1cc(Cl)ccc1Oc1cc(Cl)c(Cl)cc1S(=O)(=O)O)Nc1cc(Cl)ccc1Oc1cc(Cl)c(Cl)cc1S(=O)(=O)O ... 23
COc1ccccc1C1c2cc3c(cc2OC(C)(O)C1C)OCO3 (stereo unspecified) ... -3
COc1ccc(C2=CCC3C4CC=C5CC(O)CCC5(C)C4CCC23C)s1 (stereo unspecified) ... -3
N#CC(=C1C=CC(=NO)C=C1)c1cccc2ccccc12 ... 3
C/C=C\c1cc2c(cc1CC#N)OCO2 ... 12
Cc1ccc(N=Nc2c(C)c(C#N)c(=S)n(C3OC(CO)C(O)C(O)C3O)c2-c2ccccc2)cc1 (stereo unspecified) ... 12
CCOC(=O)C(/C=N\C(=S)Nc1c(CC)cccc1C(C)(C)C)=C(/O)c1ccccc1 ... -13
COC(=O)CCC(NC(=S)N/N=C(\C)c1cnc2ccccc2n1)C(=O)OC (stereo unspecified) ... 10
O=C(OCCCN1CCCC1)C(c1ccccc1)C1CCCCC1 (stereo unspecified) ... 13
COC(=O)c1ccc2c(c1)C(O)NC(=O)O2 (stereo unspecified) ... 18
NN=C(CC(O)(C(F)(F)Cl)C(F)(F)Cl)CC(O)(C(F)(F)Cl)C(F)(F)Cl ... 33
OCCOc1ccc2ccccc2c1-c1c(OCCOc2ccc3ccccc3c2-c2c(OCCO)ccc3ccccc23)ccc2ccccc12 ... 6
CNC(=O)N(C)/N=C/c1ccc([N+](=O)[O-])o1 ... 0
C/C(=N/Nc1ccc([N+](=O)[O-])cc1[N+](=O)[O-])C(=O)O ... -1
COc1cc(CNC(=O)CCCCCCCC/C=C/Br)ccc1O ... -4
CS(=O)(=O)OCCN(CCOS(C)(=O)=O)c1ccc(C=Nc2ccc3oc(=O)ccc3c2)cc1 ... 13
N=c1scc(-c2ccccc2)n1/N=C/c1cccnc1 ... 11
O=C(O)CCCCCCC(=O)CCl ... 25
Nc1ccc2c(SCC(=O)Nc3ccccc3-c3ccccc3NC(=O)CSc3c4ccccc4nc4cc(N)ccc34)c3ccccc3nc2c1 ... 17
Cc1cc(/C=N/Nc2ccc3cccc(O)c3n2)c(O)c2ncccc12 ... 21
O=C(CSc1nnc(-c2ccc(N=Cc3ccc(Cl)cc3)cc2)o1)Nc1ccccc1Cl ... 14
C=C(CC)C[C@@H]1C[C@]2(C(=O)OC)c3[nH]c4ccccc4c3CCN2C1=O ... 15
NC(=O)C1CCN(N=Nc2c(-c3ccccc3)n[nH]c2-c2ccccc2)CC1 ... 99
CN(C)c1ccc(C(=O)C2CCCC(C)(C)C2)cc1 (stereo unspecified) ... 7
Cc1ccnc(NCCN(C)C)c1 ... -6
C#CCOC(=O)Nc1nc2ccc(SC#N)cc2s1 ... 0
[N-]=[N+]=NCC(O)c1ccc2c(c1)[nH]c1ccccc12 (stereo unspecified) ... -8
CC/C(C)=C1\CCC(CN2CCOCC2)C1=O (stereo unspecified) ... 31
O=C(NC1(OC(=O)c2ccc(Cl)cc2)CC1)c1ccc(Cl)cc1 ... 25
Cc1cc(Cl)cc2c1NC(=O)C2(O)C/C(=N/NC(=O)CC#N)c1cccc([N+](=O)[O-])c1 (stereo unspecified) ... -3
CCCCCCCCCCC[N+](C)(C)CCCCCC[N+](C)(C)CCCCCCCCCCC ... 96
Cc1ccc2c(c1)C1(SC(C)C(=O)N1c1ccc(F)cc1)C(=O)N2 (stereo unspecified) ... 11
O=[N+]([O-])c1c(Cl)cccc1-c1c[nH]cc1Cl ... -1

* * *

- procedure_details: NCI Yeast Anticancer Drug Screen. Data for the sgs1 mgt1 strain (AID 161);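 further: 0% = growth of cultures given vehicle only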
- protocol_conditions: S. cerevisiae sgs1 mgt1 strain, at 5.0 µM (retest, dose inferred, filed as 0.5)
This is part of a sample that, as a whole, favours compounds with a hit. Of some 79,000 tested, about 15% had one in any assay. The source made the active and inactive calls. No stated cut-off is given here; in the data, active means growth inhibition above about 70%; inactive means the rest.
Outcomes: true (1) = active, false (0) = inactive

CCCC#CC(O)(C(=O)OC1CCN(C)CC1)C1CCCCC1 (stereo not drawn) ... false (0)
c1ccc(C2=NC(=c3ccc(=C4N=C(c5ccccc5)C(c5ccccc5)=N4)cc3)N=C2c2ccccc2)cc1 ... false (0)
COc1ccc2oc(-c3ccc(OC)c(OC)c3OC)cc(=O)c2c1 ... false (0)
CN(C)CCC(=O)N1C/C(=C\c2ccc(Cl)c(Cl)c2)C(=O)/C(=C/c2ccc(Cl)c(Cl)c2)C1 ... true (1)
NC(Cc1ccnnc1)C(=O)O (stereo not drawn) ... false (0)
COc1ccc(-c2cc(=O)c3c(C)ccnc3[nH]2)cc1 ... false (0)
CC(CCOP(=O)(O)OCCC(C)CC(C)(C)C)CC(C)(C)C (stereo not drawn) ... false (0)
CN(C)c1ncnc2c1ncn2C ... false (0)
C=C1CC2(C[C@@H](c3ccccc3)O[C@@H](c3ccccc3)C2)OC1=O (stereo partly drawn) ... false (0)
O=[N+]([O-])/C=C/c1cc2c(ccc3ccccc32)[nH]1 ... true (1)
CO[C@H]1C[C@@H]2CC[C@@H](C)[C@@](O)(O2)C(=O)C(=O)N2CCCC[C@H]2C(=O)O[C@H]([C@H](C)C[C@@H]2CC[C@@H](OC(=O)C(C)(CO)CO)[C@H](OC)C2)CC(=O)[C@H](C)/C=C(\C)[C@@H](O)[C@@H](OC)C(=O)[C@H](C)C[C@H](C)/C=C/C=C/C=C/1C ... true (1)
Cc1cc(C)nc(CCSS(=O)(=O)O)c1 ... false (0)
c1ccc(Nc2cccc3ccccc23)cc1 ... false (0)
COC(=O)C1=Cc2cc3c(cc2[C@H](c2ccc4c(c2)OCO4)C1C(=O)OC)OCO3 (stereo partly drawn) ... false (0)
CCOC(=O)C1=C(c2ccccc2)c2ccccc2OC1C(=O)O (stereo not drawn) ... false (0)
CN(CCO)CCn1cnc2c1c(=O)n(C)c(=O)n2C ... false (0)
NC(=S)c1cccc(C2Nc3ccccc3O2)c1 (stereo not drawn) ... false (0)
O=C1C(=O)c2ccccc2C(O)=C1Sc1ccccc1 ... false (0)
CCCC/C=C(/CCCNCCc1ccccc1)[Si](C)(C)C ... true (1)
O=C1C=CC(=O)N1c1ccc(Br)c(Cl)c1 ... false (0)
O=C(N/N=C/c1ccccc1O)C1Cc2ccccc2C1C(Cl)Cl (stereo not drawn) ... false (0)
N#Cc1ccc(Cl)cc1[N+](=O)[O-] ... false (0)
Cc1cc(C)c(S(=O)(=O)c2c(C)cc(C)cc2C)c(C)c1 ... false (0)
COc1ccc2ccc(=O)oc2c1CC=C(C)C ... false (0)
Cc1cc(C)c(C(=O)C(Br)C(Br)c2ccccc2)c(C)c1 (stereo not drawn) ... false (0)
COc1ccc(C(c2cc3c(cc2O)OCO3)N2CCOCC2)c(OC)c1OC (stereo not drawn) ... false (0)
CC(=O)OC1C(OC(C)=O)C2C(C)CC3OC(=O)C(C)C3CC2(C)C1OC(C)=O (stereo not drawn) ... false (0)
O=C1c2ccccc2C(=O)N1CCn1ccc(NC(c2ccccc2)(c2ccccc2)c2ccccc2)nc1=O ... false (0)
CC(=O)OC1SC(C)(C)n2c1nc1ccccc1c2=O (stereo not drawn) ... false (0)
O=[N+]([O-])c1ccc2nc(CCl)[nH]c2c1 ... false (0)
Oc1c(Cl)cc(Cl)c(Cc2c(Cl)cc(Cl)c(O)c2Cl)c1Cl ... true (1)
N#Cc1c(-c2ccc(Cl)cc2)c2c(n(C3OC(CO)C(O)C(O)C3O)c1=S)CCCC2 (stereo not drawn) ... false (0)
O=c1oc2ccccc2c(O)c1/C=N/C(=S)Nc1ccccc1 ... false (0)
Cc1cccc(-c2nnc(-c3cccc(C)c3)o2)c1 ... false (0)
COc1ccc(N2C(=O)C(=O)N(c3ccccc3[N+](=O)[O-])C2=S)cc1 ... false (0)
CN(C(=O)c1cccs1)C(=S)N1CCN(c2ccccc2)CC1 ... false (0)
O=[N+]([O-])c1ccc2c(c1)[nH]c1ccccc12 ... false (0)
Nc1cc(F)c(F)cc1Sc1cc(F)c(F)cc1N ... false (0)
OC12C3C4CC5C(C4[C@@H]1Br)C2[C@@](O)(c1c(F)c(F)c(F)c(F)c1F)C53 (stereo partly drawn) ... false (0)
CCOC(=O)C(CC)(CCc1ccccc1[N+](=O)[O-])C(=O)OCC ... false (0)
COc1cc(OC(C)C)cc2c1C(=O)C(C(O)(O)C(F)(F)F)=CC2=O ... false (0)
CCCCCCCOC(=O)c1cc2cc(C(CC)C(CC)c3ccc(O)cc3)ccc2oc1=O (stereo not drawn) ... false (0)
Cc1cc(Cl)ccc1Nc1sc(C(=O)c2cc3cc(Cl)ccc3o2)c(N)c1C#N ... false (0)
